# MEASUREMENT_NOTES: Serum stability of prodrugs, rat serum
# Format: in vitro ADME
# CONDITION_DESCRIPTION: prodrug, theoretical initial conc. 20 ug/mL
QUANTITY: Conc. at t = 1 hr (ng/mL)

[[record]]
compound = "CSCC(=O)N[C@H]1Cc2ccc(SC)c(C(=O)OCOC(=O)C(C)C)c2OB1O [Compound 44]"
measurement = 16000

[[record]]
compound = "CSCC(=O)N[C@H]1Cc2ccc(F)c(C(=O)OCOC(=O)C(C)C)c2OB1O [Compound 17]"
measurement = 1350

[[record]]
compound = "CSCC(=O)N[C@H]1Cc2cc(Cl)c(F)c(C(=O)OCOC(=O)C(C)C)c2OB1O [Compound 46]"
measurement = 8290


Origin of the recorded values: patent US9963467B2
